test: yeast display, Sf9 membrane polyspecificity reagent, FACS + sequencing; frameworks hold sequencing errors
observed.property: polyreactivity (PSR sort gate)

QVQLVESGGGLVQAGGSLRLSCAASGITFGYYAMGWYRQAPGKERELVAAISSGGRTYYADSVKGRFTIARDNAKNTVYLQMNSLKPEDTGVYYCAVVARHPSRMDYWGQGTQVTVSS    high polyreactivity
QVQLVESGGGLVQAGGSLRLSCAASGRTFPAYAMGWYRQAPGKERELVAGISKRGGSTYYADSVKGRFTISRDNAKNTVYFQMNSLKPEDTAVYYCNAEGHLFRYDSWGQGTQVTVSS    high polyreactivity
QVQLVESAGGLVQAGGILRLSCAASGRIFTRNAMGWYRQAPGKERELVAAISSSSGSKYYADSVKGRFTISRDNAKNTVYLQMNSLKPEDTAVYYCAARSYYYSWGYDHWGQGTQVTVSS    high polyreactivity
QDQLVESGGGLVQAGGSLRLSCAASGSTFGFYAMGWYRQAPGKERELVAAITTGGSTNYADSVKGRFTISRDNAKNTVYLQMNSLKPEDTAVYYCNADVYWNPYYDYDYWGQGTQVTVSS    high polyreactivity

----------
assay: yeast display, Sf9 membrane polyspecificity reagent, FACS + sequencing; frameworks hold sequencing errors
observed.property: polyreactivity (PSR sort gate)

Consider the worked cases shown below.
QVQLVESGGGLFQAGGSLRLSCAASGRTFQNAMGWYRQAPGKERELVAAISVRGTRTYYADSVKGRFTISRDNAKNTVYLQMNSLKPEDTAVYYCAADRGKATSADDYWGQGTQVTVSW    high polyreactivity
QVQLVESGGGLVQAGGSLRLSCAASGITFYDNVMGWYRQAPGKERELVAAITSGGSTNYADSVKGRFTISRDNAKNTVYLQMNSLKPEDTAVYYCAAQPRVDYEFPYRYGYWGQGTQVTVSS    low polyreactivity
QVQLVESGGGLVQAGGSLRLSCAASGYIFRYYAMGRYRQAPGKERELVAAITARAGRTYYADSVKGRFTISRDNAKNTVYLQMTSLKPEDTAVYYCAAVRTKVWRGPEMDYWGQGTQVNVSS    high polyreactivity
QVQLVESGGGLVQAGGILRLSCASSGSICYWYAMGWYRQAPGKERELVASITGGGSKKYAESLKGRFTISRDNANNSVYLQINSLKREDTAVYYCAARYGQPWGSRYYYWGQVTQVTVSS    high polyreactivity

Here is the next item to consider.
Summary for this sequence, QVQLVESGGGLVQAGGSLRLSCAASGRIFRPNAMGWYRQAPGKERELVAAISYSGATTYYADSVKGRFTISRDNAKNTVYLQMNSLKPEDTAVYYCAADTPDAPDYSGFYYWGQGTKVTVSS : polyreactivity (PSR sort gate) is low polyreactivity

----------
experiment: yeast display, Sf9 membrane polyspecificity reagent, FACS + sequencing; frameworks hold sequencing errors
observed.property: polyreactivity (PSR sort gate)

Consider the worked cases shown below.
QVQLVESGGGLVQAGGSLRLSCADSGFIFATNAMGWYRQAPGKERDFVAAITSGGSTYYADSVKGRFTISRDNAKNTVYLQMNSLKPEDTAVYYCNARTYSRVTRQTYRYRPYDYWGQGTQVSVSS    high polyreactivity
QVQLVESGGGLVQAGGSLRLSCAASGLIFLEYAMGWYRQAPGKERELLAAISTSGGSTYYADSVKGRFTISRDNAKNTVYLQMNSLKPEDTAVYYCAAEPVYNYYFHDGDYWGQGTQVTVSS    low polyreactivity
QVQIVESGGGLVQAGGSLRLSCAASGSIFSRYTMGWYRQAPGKERELVARINSSGTSTYYADSVKGRFTISRDNEKNSVYFQMNSLKPEDTAVYYCDRTSRHVRYDYWGQGTQVTVSS    low polyreactivity
QFQLVESGGGLVQAGGSLRLSCAASGLTFYAYARGWYRQAPGKDSELVAAISSGGSTSYADSVKGRFTISRDNAKYTVYLQMNSLKPEDTAVYYCAARPISSRFFGWGYNYWGQGTQVTVSS    high polyreactivity

Here is the next item to consider.
Summary for this sequence, QVQLVEAGGGLVQAGGSLRLTCAASVRTFTGYAMGCYRQAPGTERELVAAMTLSGGSTYYADSVKGRFTISRDNAKNTVYLQMNSLKPEDTAVFYCAAKWWHFYPYDYWGQGTQVTVSS : polyreactivity (PSR sort gate) is high polyreactivity

----------
assay: yeast display, Sf9 membrane polyspecificity reagent, FACS + sequencing; frameworks hold sequencing errors
observed.property: polyreactivity (PSR sort gate)

Consider the worked cases shown below.
QVQLVESGGGLVQAGGSLRLSCAASGSTFSTNAMGWYRQAPGKERDLVAAISRSGGSTYYADTVKRRFTISRDIAKITVYLQMNSLKPEVSAVYYCARYSYRGTNVSYDYWGQGTQVTVSS    high polyreactivity
QVQLVESGGGLVQEGGSLRLSCAASGYTFGRYFMGWYRQAPGKEREFVAAISRGGGSTYYADSVKGRFTISRDNAKNTVYLQMNSLKPEDTAVYYCDTRSSNAEYWGQGTQVTVSS    high polyreactivity
QVHLVESGGGLVQAGGSLRLSCAASGSIFNENAMGWYRQAPGKERELVATISRRGGSTYYADSVKGRFTISRDNAKNTVYLQMNSLKPEDTAVYYCARDIFWVVYWGQGTQVTVSS    high polyreactivity
QVQLVESGGRLHQAGGSLRLICAASGSIIATYAMGWYRPAHGKERELVAAITSSDGSTNYADSVKGRFTISRDNAKNTVYLQMNCLTPEDTAVYYCAKDVWRHYLNLYDYWGQGTQVTVSS    low polyreactivity

Summary for this sequence, HVQLVESGRGLVQAGGSLRLSCAASGSTFPFYDRGWYRQAPGKERQLVDAITASVGNTYYADSVKGRFTISRDNAKNTVYLQMNSLKPEDTAVYYCNADELYTYIPDFDYWGQGSQVTVSS : polyreactivity (PSR sort gate) is low polyreactivity

----------
assay: yeast display, Sf9 membrane polyspecificity reagent, FACS + sequencing; frameworks hold sequencing errors
observed.property: polyreactivity (PSR sort gate)

Consider the worked cases shown below.
QVQLVESGGGLVQAGGSLRLSCAASGRIFIEYAMGWYRQAPGKERELVATINSSGGRTYYADSVKGRFTISRDNAKNTVYLQMHSLKPEDTAVYYCNADVGLLYTETYEYDYWGQGTQVTVSS    low polyreactivity
QVQLVESGGGLVQAGGSLRLSCAASGRTFSGNAMGWYRQAPGKEREMVAAITGRGGTTYYADSVKGRFTISRDNAKKTVFLQMNSLKPEDTAVYYCAADTKLSYQWFDYWGQGTQVTVSS    high polyreactivity
QVQLVESGGGLVQAGGSLRLSWAASGSTFAYNDMGWYRQAPGKERELVASITSGGSTNYADSVKGRFTISRDNAKNTVYLQMNSLKPEDTAVYYCAARVRYRFDYWGQGTQVTVSS    low polyreactivity
QVQLVESGGGLVQAGGSHRLSCAASGRIFNNNAMGWYRQAPGTEREFVAAISSGGGSTYYADSVKGRFTISRDNAKNTVYLQMNSLKPEDTAVYYCAARRHGRVDYSQGSRESYYWGQGTQVTVSS    high polyreactivity
QVQLVESGGGLVQAGGSLRLSFAASGRIIRGYAMGRDRQAPGKERELVAAINGGDSTFADSVKGRFTISRDNAKNTVYLQMNSLKPEDTAVYYCAAAHYFLGPQGASFYYWGQGTQVTVSA    low polyreactivity
QVQLVESGGGLVQAGGILRLSCAASGSIFRVYAMGWYRQAPGKVRELVASISRRGGSTYYADSVKGRFTISRDNAKNTVYLQMNSLKPEDTAVYYCAATTYSGFDYCGQGTQVTVSS    high polyreactivity
QVQLVESGGGLVQAGGSLRLSCAASGSIFCRNAMGWYRQAPGKERELVAAITSGGTTNYADSVKGRFTISRDNAKNSVYLQMNSLKPEDTAVYYCATRASYLRRYDHPHSDVDYWGQGTQVTVSS    low polyreactivity
QVQLVESGGGLVQAGGSLRLSCAASGRTFVGNAMGWYRQAPGKERELVAVITGSGARTYYADSVKGRFTISRDNAKNTVYLQMNSLKPEDTAVYYCAAAGYSGQYRSYYWGQGTQVTVSS    high polyreactivity

Here is the next item to consider.
Summary for this sequence, QVQLVESGGGLVQAGGSLRLSCAASGFTFWWYAMGWYRQAPGKERQLVAGITSGASTYYADSVKGRYTISRDNAKNTVYLQMNSLKPEDTAVYYCAADWLGWYQPYDYWGQGTQVTVSS : polyreactivity (PSR sort gate) is low polyreactivity

----------
test: yeast display, Sf9 membrane polyspecificity reagent, FACS + sequencing; frameworks hold sequencing errors
observed.property: polyreactivity (PSR sort gate)

Consider the worked cases shown below.
QVQLVESGGGLVQAGGSLRLSCAASGSTFQSYAMGWYRQAPGKERELVAAIDIGDSTYYADSVKGRYTISRDNAKNTVYLQMNSLKPEDTAVYYCAADDEDVLFDYWGQGTQVTVSS    low polyreactivity
QVQLVESGGGLVQAGGSLRLSCAASGSTFGRYVMGWYRQAPGKERELVAAISYSGGRTYYADSVKGRFTISRDNAKNTVYLQMNSLKPEDTAVYYCAARVRTVRNTYYSWGQGTQVTVSS    high polyreactivity
QVQLVESGGGLVQAGGSLRLSCAASGLTFFGYPMGWYRQAPGKEREFVADITWSGGSTYYADSVKGRFTISRDNAKNTVYLQMNSLKPEDTAVYYCAADYHKAEFNYWGQGTQVTVSS    low polyreactivity
QFQLVESGGGLVQAGGSLRLSCAASGSTYSYYAMGWYRQAPGKERELVAAISSRGGSTYYADSVKGRFTISRDNAMNTVYLQMNSLKPEDTAVYYCNADHQFRSSVSGDHDYWGQGTQVTVSS    high polyreactivity

Here is the next item to consider.
Summary for this sequence, QVQLVESGGGIVQAGGSLRLSCAASGRIFTQYTMGWYRQAPGKERELVAAINYSGGRTNYADSVKGRFTISRDIAKNTVYLQMNSLKPEDTAVYYCAAGYRRATYGYWGQGTQVTVSS : polyreactivity (PSR sort gate) is high polyreactivity
